Parameter: log10(Kd). Scope: all listed entries.
molecular target: T1, αvβ3 integrin on cells (U87MG glioblastoma cells; K562-αvβ3 cells) (UniProt P06756 31-1048; P05106 27-788); test: direct equilibrium titration on U87MG cells, anti-His flow cytometry
T1 construct: whole, on cells; also called cell surface αvβ3 integrin
T1 sequence (P06756 31-1048, chain 1 of 2): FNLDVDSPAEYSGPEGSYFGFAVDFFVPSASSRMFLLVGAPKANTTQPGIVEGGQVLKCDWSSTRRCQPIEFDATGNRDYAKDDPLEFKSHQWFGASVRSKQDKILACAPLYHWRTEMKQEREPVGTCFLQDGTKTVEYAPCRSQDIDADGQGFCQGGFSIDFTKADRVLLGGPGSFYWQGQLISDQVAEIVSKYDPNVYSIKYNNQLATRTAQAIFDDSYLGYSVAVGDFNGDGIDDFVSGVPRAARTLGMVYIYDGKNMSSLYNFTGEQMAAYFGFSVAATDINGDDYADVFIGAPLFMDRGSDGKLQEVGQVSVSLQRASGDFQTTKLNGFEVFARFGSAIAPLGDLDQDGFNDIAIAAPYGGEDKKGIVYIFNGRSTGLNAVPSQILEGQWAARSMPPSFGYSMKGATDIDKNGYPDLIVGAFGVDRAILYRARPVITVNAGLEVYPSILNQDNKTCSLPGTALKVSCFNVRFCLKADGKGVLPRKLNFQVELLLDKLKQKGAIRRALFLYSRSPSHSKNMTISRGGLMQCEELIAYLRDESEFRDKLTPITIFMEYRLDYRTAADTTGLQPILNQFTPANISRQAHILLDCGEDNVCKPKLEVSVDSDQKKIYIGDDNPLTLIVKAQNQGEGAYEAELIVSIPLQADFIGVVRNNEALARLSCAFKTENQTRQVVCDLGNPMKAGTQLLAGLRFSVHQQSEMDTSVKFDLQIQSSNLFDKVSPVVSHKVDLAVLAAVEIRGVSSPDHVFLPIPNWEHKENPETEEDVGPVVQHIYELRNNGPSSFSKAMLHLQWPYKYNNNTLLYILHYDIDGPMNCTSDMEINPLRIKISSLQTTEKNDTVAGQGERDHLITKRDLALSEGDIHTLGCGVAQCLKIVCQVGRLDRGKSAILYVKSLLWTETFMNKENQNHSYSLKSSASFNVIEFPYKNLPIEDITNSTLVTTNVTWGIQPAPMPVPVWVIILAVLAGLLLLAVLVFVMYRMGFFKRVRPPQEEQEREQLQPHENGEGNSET
T1 sequence (P05106 27-788, chain 2 of 2): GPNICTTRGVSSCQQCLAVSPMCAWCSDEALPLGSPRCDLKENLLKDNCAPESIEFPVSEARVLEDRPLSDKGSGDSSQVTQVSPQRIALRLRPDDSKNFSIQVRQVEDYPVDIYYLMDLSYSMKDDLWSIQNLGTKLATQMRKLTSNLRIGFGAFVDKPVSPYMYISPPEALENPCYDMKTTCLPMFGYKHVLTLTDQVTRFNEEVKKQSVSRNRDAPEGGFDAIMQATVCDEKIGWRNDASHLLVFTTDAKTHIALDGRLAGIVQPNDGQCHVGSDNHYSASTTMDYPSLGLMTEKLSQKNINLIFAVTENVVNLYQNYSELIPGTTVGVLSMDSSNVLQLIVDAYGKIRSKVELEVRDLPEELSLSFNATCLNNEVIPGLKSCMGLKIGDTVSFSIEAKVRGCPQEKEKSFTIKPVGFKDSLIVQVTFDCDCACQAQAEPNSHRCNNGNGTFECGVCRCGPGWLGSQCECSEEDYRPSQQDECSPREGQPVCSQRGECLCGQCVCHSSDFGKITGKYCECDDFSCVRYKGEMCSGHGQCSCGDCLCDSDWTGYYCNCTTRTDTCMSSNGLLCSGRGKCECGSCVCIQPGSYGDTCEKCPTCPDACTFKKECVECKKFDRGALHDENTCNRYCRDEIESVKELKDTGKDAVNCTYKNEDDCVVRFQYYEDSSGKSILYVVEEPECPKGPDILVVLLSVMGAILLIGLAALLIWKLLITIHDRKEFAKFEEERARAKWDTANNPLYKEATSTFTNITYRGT
measure: log10(Kd) (log10 of the value in nM)

binder	log10(Kd)
recombinant engineered AgRP peptide 7J (FLAG and hexahistidine tagged) (also called 7J (6B); 6B) DYKDDDDKGCVRLHESCLGQQVPCCDPAATCYCEGRGDRDMKCYCRHHHHHH	0.92
recombinant engineered AgRP peptide 7E (FLAG and hexahistidine tagged) (peptide) DYKDDDDKGCVRLHESCLGQQVPCCDPAATCYCVGRGDDNLKCYCRHHHHHH	0.15
recombinant AgRP peptide 7C (FLAG and hexahistidine tagged) (peptide) DYKDDDDKGCVRLHESCLGQQVPCCDPAATCYCYGRGDNDLRCYCRHHHHHH	0.26
recombinant engineered AgRP peptide 7A (FLAG and hexahistidine tagged) (also called 7A (5E); 5E) DYKDDDDKGCVRLHESCLGQQVPCCDPAATCYCSGRGDNDLVCYCRHHHHHH	-0.11
recombinant engineered AgRP peptide 6C (FLAG and hexahistidine tagged) (peptide) DYKDDDDKGCVRLHESCLGQQVPCCDPAATCYCTGRGDEKLRCYCRHHHHHH	1.11
